experiment: small-molecule microarray binders of probe aWnt5a, primary screen, biochemical, biotinylated probe, 635/667 nm fluorescence (AID 1113); settings: higher = more signal;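 note: score merges 667 nm fluorescence intensity with signal-to-noise per printed feature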
Values of composite z-score greater than or equal to -0.08 map to label 1; values below map to label 0.

• CCCNC(=O)[C@@]1(c2ccc([N+](=O)[O-])cc2)CC(=O)N(CC23CC4CC(CC(C4)C2)C3)[C@@H]1c1ccc(CO)cc1 = label 1
• CCOC(=O)C1=CC[C@@H](c2ccccc2Cl)N(S(=O)(=O)c2ccc(C)cc2)C1 = label 0
• COCCOC(=O)N1C(=O)[C@@]2(c3cc(C#CCNC(N)=O)ccc31)[C@H](c1ccc(O)cc1)N1[C@H](c3ccccc3)[C@H](c3ccccc3)OC(=O)[C@H]1[C@@H]2C(=O)NC[C@H](O)c1ccccc1 = label 1
• COc1ccc(C(O)C2C=CC3C(=O)N(C)C(=O)C3N2Nc2ccccc2)cc1OCc1ccccc1 (stereo not drawn) = label 1
• O=C1C2C=CC(C(O)c3cccs3)N(Nc3ccccc3F)C2C(=O)N1c1ccccc1 (stereo not drawn) = label 1
• O=C1OCC=C[C@H]2OC34C=CCN(c5ccc6ccccc6c5)C(=O)[C@H]3N(CCCO)C(=O)[C@@H]4[C@@H]12 (stereo partly drawn) = label 0
• COC(=O)c1ccc(OC)c(/C=C\CC(OC(C)=O)c2ccccc2)c1 (stereo not drawn) = label 0
• N#Cc1ccc(NN2C(C(O)c3ccc([N+](=O)[O-])cc3)C=CC3C(=O)N(c4ccccc4)C(=O)C32)cc1 (stereo not drawn) = label 1
• O=c1oc(-c2ccccc2)nc2cc(Br)ccc12 = label 0
• CC(C)C[C@@H]1NC(=O)[C@H]2C[C@@H](C(=O)NCCCCCNC(=O)CS)[C@@H](c3cccc(OCCO)c3)N2C1=O = label 0
• CN1C(=O)C2C(C1=O)C1C=C(CCCO)C2C(c2cccs2)N1C (stereo not drawn) = label 1
• O=C1N(CCS(=O)(=O)c2ccccc2)c2ccccc2C[C@@]12COC(c1ccc(OCCCO)cc1)=N2 = label 1
• COC(=O)c1ccc(C(O)C2C=CC3C(=O)N(c4ccccc4)C(=O)C3N2Nc2ccc(C#N)cc2)o1 (stereo not drawn) = label 1
• O=c1cccc(CCc2ccccc2)o1 = label 0
• COC(=O)[C@@]1(Cc2ccc(OC)cc2)[C@H]2c3cc(C(=O)N4CCCC4)n(Cc4cc(F)cc5c4OCOC5)c3C[C@H]2CN1C(=O)c1ccccc1 = label 1
• CC(=CC1CCCCC1)[C@@H](NC(=O)c1ccc(C(F)(F)F)cc1)c1ccc(-c2ccccc2)cc1 = label 1
• CC(=O)NCCCC[C@@H]1NC(=O)[C@@H]2C[C@H](C(=O)NCCCCCCNC(=O)CS)[C@H](c3ccc(O)cc3)N2C1=O = label 0
• O=C1OCCC/C=C\[C@H]2OC34C=CCN(Cn5nnc6ccccc65)C(=O)[C@H]3N(CCCCCO)C(=O)[C@@H]4C12 (stereo partly drawn) = label 0
• O=C1O[C@H](c2ccccc2)[C@H](c2ccccc2)N2[C@H]1[C@@H](C(=O)O)[C@]1(C(=O)Nc3ccc(C#CC4=CCCCC4)cc31)[C@H]2c1ccc(OCCO)cc1 = label 1
• CC(C)NC(=O)[C@@H]1c2ccccc2C(=O)N(Cc2ccccc2)[C@H]1c1ccc(CO)cc1 = label 1
• CCOC(=O)C[C@H]1[C@H](OC(=O)c2ccccc2-c2ccccc2)[C@@H](NC(=O)c2ccc3ccccc3c2)c2cc(OCCCO)ccc2N1C(=O)c1ccc2ccccc2n1 = label 1
• O=C1C2C=CC(C(O)c3ccc(B(O)O)cc3)N(Nc3ccccc3)C2C(=O)N1c1ccccc1 (stereo not drawn) = label 0

Attribution: PubChem BioAssay
